- tested system: monoamine oxidase B (MAO-B) (Homo sapiens, UniProt P27338)
- Construct: gene MAOB; Human recombinant MAO-B (Sigma, M7441)
- Sequence (P27338 2-520): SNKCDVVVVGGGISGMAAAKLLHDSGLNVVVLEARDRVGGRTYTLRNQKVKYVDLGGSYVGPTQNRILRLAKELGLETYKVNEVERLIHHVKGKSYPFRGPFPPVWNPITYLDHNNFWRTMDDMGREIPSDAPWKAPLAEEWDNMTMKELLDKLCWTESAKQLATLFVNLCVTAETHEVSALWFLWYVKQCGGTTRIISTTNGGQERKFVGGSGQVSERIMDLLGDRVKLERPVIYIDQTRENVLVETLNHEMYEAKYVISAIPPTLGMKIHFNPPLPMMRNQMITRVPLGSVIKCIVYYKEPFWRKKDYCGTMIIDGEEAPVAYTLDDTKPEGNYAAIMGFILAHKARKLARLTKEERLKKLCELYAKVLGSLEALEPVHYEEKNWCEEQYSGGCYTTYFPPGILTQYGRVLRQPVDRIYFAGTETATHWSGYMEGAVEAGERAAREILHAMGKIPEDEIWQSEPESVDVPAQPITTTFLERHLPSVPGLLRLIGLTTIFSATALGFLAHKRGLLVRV
- assay summary: in vitro MAO-B enzyme activity assay with recombinant human enzyme
- Assay type: biochemical

{"smiles data": "COc1c(O)cc(O)c2c(=O)cc(-c3ccccc3)oc12", "units symbol": "µM", "IC50": 79.2}
{"smiles data": "O=c1cc(-c2ccccc2)oc2cc(O)c(O)c(O)c12", "units symbol": "µM", "IC50": 21}

###

- tested system: monoamine oxidase B (MAO-B) (Homo sapiens, UniProt P27338)
- Construct: gene MAOB; Human recombinant MAO-B (Sigma, M7441)
- assay summary: in vitro MAO-B enzyme activity assay with recombinant human enzyme
- Type: biochemical
- test conditions: read-out: IC50

{"smiles data": "O=C(O)[C@H]1O[C@@H](Oc2cc3oc(-c4ccccc4)cc(=O)c3c(O)c2O)[C@H](O)[C@@H](O)[C@@H]1O", "IC50 [µM]": 6.26}

Just for reference, paper PMC11076983 is where these values come from.
